experiment: Dissociation constant, pKa at pH 1.8 to 2.0; assay type: physicochemical
parameter: pKa

>>> experimental_result("COc1cc2c(cc1OC)[C@H](CCC[C@H]1c3cc(OC)c(OC)cc3CCN1C)N(C)CC2")
8.1

---

biological target: Small conductance calcium-activated potassium channel protein 1 (Homo sapiens, UniProt Q92952); assay: Inhibition of SK1 expressed in CHO FlipIn cells by whole cell patch-clamp assay
Sequence (Q92952 whole entry): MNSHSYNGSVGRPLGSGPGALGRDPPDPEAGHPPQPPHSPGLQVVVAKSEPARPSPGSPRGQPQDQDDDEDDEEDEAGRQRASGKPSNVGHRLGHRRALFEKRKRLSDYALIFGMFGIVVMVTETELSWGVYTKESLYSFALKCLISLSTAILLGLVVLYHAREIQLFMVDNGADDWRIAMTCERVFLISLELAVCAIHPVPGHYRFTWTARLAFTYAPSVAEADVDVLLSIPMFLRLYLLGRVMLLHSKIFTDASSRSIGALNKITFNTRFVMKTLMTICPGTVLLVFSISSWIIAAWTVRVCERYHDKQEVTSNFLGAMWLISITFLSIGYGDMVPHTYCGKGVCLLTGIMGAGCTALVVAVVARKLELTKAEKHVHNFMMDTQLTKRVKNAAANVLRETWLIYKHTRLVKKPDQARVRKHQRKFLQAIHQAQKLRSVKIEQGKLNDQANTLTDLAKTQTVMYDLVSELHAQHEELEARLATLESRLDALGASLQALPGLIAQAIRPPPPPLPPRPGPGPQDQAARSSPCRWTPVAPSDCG
parameter: IC50 (µM)

>>> experimental_result("COc1cc2c(cc1OC)[C@H](CCC[C@H]1c3cc(OC)c(OC)cc3CCN1C)N(C)CC2")
3.8

---

test: Lipophilicity, log P of the compound; type: physicochemical; conditions: octanol/water
parameter: logP

>>> experimental_result("COc1cc2c(cc1OC)[C@H](CCC[C@H]1c3cc(OC)c(OC)cc3CCN1C)N(C)CC2")
2.9

---

experiment: Inhibition of apamin-sensitive SK channel
Catalogue of compounds with associated Ki
parameter: Ki (nM)

>>> experimental_result("Cc1cc(N)c2ccccc2[n+]1CCCCCCCCCC[n+]1c(C)cc(N)c2ccccc21 [DEQUALINIUM CHLORIDE]")
221
>>> experimental_result("COc1cc2c(cc1OC)[C@@H](CCC[C@@H]1c3cc(OC)c(OC)cc3CCN1C)N(C)CC2")
1880
>>> experimental_result("COc1cc2c(cc1OC)[C@@H](CCC[C@H]1c3cc(OC)c(OC)cc3CCN1C)N(C)CC2")
1420
>>> experimental_result("COc1ccc(C[C@H]2c3cc(OC)c(OC)cc3CC[N+]2(C)C)cc1OC [LAUDANOSINE METHIODIDE]")
1600
>>> experimental_result("COc1cc2c(cc1OC)[C@H](CCC[C@H]1c3cc(OC)c(OC)cc3CCN1C)N(C)CC2")
293
>>> experimental_result("COc1ccc(CC2c3cc(OC)c(OC)cc3CCN2C)cc1OC (stereo unspecified)")
30000

---

molecular target: Small conductance calcium-activated potassium channel protein 3 (Homo sapiens, UniProt Q9UGI6); test: Inhibition of SK3 expressed in CHO FlipIn cells by whole cell patch-clamp assay
Sequence (Q9UGI6 whole entry): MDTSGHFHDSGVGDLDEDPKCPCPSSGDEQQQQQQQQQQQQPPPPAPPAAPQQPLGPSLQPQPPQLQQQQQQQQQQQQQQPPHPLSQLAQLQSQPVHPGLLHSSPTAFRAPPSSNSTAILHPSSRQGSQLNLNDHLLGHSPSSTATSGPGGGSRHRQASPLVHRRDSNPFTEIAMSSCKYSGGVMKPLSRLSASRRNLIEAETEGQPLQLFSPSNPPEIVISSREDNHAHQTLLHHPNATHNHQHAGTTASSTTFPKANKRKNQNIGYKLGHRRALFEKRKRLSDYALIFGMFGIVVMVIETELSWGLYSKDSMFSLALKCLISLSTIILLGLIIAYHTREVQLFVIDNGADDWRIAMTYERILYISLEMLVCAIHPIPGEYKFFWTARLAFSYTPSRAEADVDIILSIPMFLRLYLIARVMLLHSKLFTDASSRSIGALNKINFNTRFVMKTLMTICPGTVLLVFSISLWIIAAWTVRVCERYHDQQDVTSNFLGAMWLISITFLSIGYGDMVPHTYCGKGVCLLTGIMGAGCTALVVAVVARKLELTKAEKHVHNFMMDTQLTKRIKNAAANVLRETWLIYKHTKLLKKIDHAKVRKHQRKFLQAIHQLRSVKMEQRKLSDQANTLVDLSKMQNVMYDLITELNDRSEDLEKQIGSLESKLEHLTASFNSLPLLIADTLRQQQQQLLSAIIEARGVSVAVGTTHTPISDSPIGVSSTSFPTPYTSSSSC
pIC50: −log10 of the molar value.
parameter: pIC50

>>> experimental_result("COc1cc2c(cc1OC)[C@H](CCC[C@H]1c3cc(OC)c(OC)cc3CCN1C)N(C)CC2")
5.52
